# test.target: human vasopressin V1b receptor (Homo sapiens)
# Sequence (P47901 1-424): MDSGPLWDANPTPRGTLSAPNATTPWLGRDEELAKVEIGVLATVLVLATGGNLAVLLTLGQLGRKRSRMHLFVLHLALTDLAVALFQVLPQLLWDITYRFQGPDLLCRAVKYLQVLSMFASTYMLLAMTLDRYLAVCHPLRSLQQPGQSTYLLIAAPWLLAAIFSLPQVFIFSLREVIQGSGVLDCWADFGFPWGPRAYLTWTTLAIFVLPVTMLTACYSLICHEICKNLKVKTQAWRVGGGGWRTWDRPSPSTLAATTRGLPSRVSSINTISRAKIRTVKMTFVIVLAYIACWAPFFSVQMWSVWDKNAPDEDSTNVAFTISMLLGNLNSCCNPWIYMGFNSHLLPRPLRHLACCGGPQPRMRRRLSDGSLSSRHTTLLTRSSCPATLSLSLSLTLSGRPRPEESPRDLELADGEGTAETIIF
# protocol.summary: biochemical
Below, each of the molecules is paired with its reported Ki value.

Solved entries (count: 3):
CCOc1ncccc1[C@]1(NC(=O)N2CCN(C3CCN(C4COC4)CC3)CC2)C(=O)N(S(=O)(=O)c2ccc(OC)cc2OC)c2cc(F)c(C#N)cc21 : < 1 nM
COc1ccc(S(=O)(=O)N2C(=O)[C@@](NC(=O)N3CCC(N4CCN(C5COC5)CC4)CC3)(c3cccnc3OC)c3cc(C#N)ccc32)c(OC)c1 : 10 to 100 nM
CCOc1ncccc1[C@]1(NC(=O)N2CC3CC2CN3C2CCN(C3COC3)CC2)C(=O)N(S(=O)(=O)c2ccc(OC)cc2OC)c2ccc(C#N)cc21 (stereo partly shown) : 10 to 100 nM

For CCOc1ncccc1[C@]1(NC(=O)N2CCN(C3CCN(C4(C)COC4)CC3)CC2)C(=O)N(S(=O)(=O)c2ccc(OC)cc2OC)c2ccc(C#N)cc21 , what is its reported Ki?
1 to 10 nM
